- Target Entity: T1, human MSLN-FL-his protein (human, UniProt Q13421 296-580)
- T1 construct: made in HEK293E cells, purified on nickel column; also called hMSLN-FL-his; human MSLN full-length protein; not shown: His tag
- T1 sequence (Q13421 other isoform, or with tags, fused parts or gaps): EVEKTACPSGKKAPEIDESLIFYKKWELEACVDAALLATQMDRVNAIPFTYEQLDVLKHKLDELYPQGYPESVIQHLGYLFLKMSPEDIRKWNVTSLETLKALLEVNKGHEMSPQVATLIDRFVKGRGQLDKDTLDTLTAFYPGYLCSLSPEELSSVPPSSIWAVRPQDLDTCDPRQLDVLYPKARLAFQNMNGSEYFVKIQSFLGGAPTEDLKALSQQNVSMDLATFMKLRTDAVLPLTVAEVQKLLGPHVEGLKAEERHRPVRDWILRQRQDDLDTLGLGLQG
- Assay Summary: competitive ELISA; row F1.35.24; note: test concentration or dose not given here
Measured Quantity: competition rate (%)
Answer format: numeric, % implied, no suffix.

Before answering, review these 2 worked examples.
- Binder: "S009-F1.35.24 (antibody, human IgG1, kappa, V domains shown, human-murine chimeric antibody, human IgG1/kappa constant regions) VH: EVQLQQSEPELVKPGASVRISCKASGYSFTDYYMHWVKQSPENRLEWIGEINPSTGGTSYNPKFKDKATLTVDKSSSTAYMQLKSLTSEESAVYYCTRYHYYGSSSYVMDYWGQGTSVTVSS VL: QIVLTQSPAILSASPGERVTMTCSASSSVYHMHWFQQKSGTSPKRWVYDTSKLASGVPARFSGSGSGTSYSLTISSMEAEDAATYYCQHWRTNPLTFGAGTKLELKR"
  Measured Quantity: "competition rate"
  Numeric Readout: 100
- Binder: "S009-F2.58.8 (antibody, human IgG1, kappa, V domains shown, human-murine chimeric antibody, human IgG1/kappa constant regions) VH: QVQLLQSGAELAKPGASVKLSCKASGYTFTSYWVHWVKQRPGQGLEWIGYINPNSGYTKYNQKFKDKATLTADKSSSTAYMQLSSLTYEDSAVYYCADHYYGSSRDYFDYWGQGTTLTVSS VL: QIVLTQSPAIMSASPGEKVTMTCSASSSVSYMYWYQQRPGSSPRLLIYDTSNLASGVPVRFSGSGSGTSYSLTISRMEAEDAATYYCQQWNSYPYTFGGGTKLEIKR"
  Measured Quantity: "competition rate"
  Numeric Readout: 96

Input: What value of competition rate has been reported for the following binder? S009-F1.56.1 (antibody, human IgG1, kappa, V domains shown, human-murine chimeric antibody, human IgG1/kappa constant regions) VH: EVQLQQSGAEVVKPGASVKLSCTASGFNIRHTYMHWVKQRPEQGLEWIGRIDPANGNTEYDPKFQGKATITADTSSNTAYLQLSSLTSEDTAVYYCARDGWYIDVWGAGTTVTVSS VL: DIVMSQSPSSLAVSVGEKVTMSCKSSQSLLYSNNQKNYLAWYQQKPGQSPKLLIYWASTRESGVPDRFTGSGSGTDFTLTISSVKAEDLAVYYCQRYYSYPWTFGGGTKLEIKR
Output: 79
